The measurements presented in this section are drawn from patent US20260274955A1.

In this section, each of the binders is paired with its reported Anti-CD28 Fab signal in the presence of CD28.
# Measurement target: T1, Anti-CD28 Fab (SEQ ID NOs: 202, 203)
# T1 construct: biotinylated and captured on neutravidin coated plates in the phage ELISA
# T1 sequence (VH, as listed by the source, chain 1 of 2): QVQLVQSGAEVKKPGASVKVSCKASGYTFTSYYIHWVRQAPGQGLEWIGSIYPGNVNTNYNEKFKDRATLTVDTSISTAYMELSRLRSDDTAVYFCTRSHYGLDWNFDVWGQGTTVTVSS
# T1 sequence (VL, as listed by the source, chain 2 of 2): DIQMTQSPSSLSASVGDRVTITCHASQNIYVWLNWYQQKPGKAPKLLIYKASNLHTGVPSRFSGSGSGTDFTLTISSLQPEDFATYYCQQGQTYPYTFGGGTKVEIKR
# Test description: phage ELISA, Fab on plate, CD28 antigen as competitor
Observation type: Anti-CD28 Fab signal in the presence of CD28

binder="YCDGHSFHYMAKCL [Phage-740]" measured_number=0.06
binder="YCEGHSQTYMWKCL [Phage-709]" measured_number=0.08
binder="YCDGHMVQYMAKCL [Phage-639]" measured_number=0.07
binder="YCHGHLPQYMSKCM [Phage-700]" measured_number=0.06
binder="YCSGHLPEYMDKCL [Phage-619]" measured_number=0.07
binder="YCEGHIGIYMSKCL [Phage-693]" measured_number=0.07
binder="YCEGHSTEYIQKCL [Phage-694]" measured_number=0.09
binder="YCEGHAAEYLWKCL [Phage-705]" measured_number=0.09
binder="YCDGHSHEYMQKCL [Phage-611]" measured_number=0.06
binder="YCAGHSSEYIGKCL [Phage-710]" measured_number=0.06
binder="YCEGHMPEYLAKCL [Phage-707]" measured_number=0.07
binder="YCDGHLEQYMLKCL [Phage-692]" measured_number=0.09
binder="YCDGHDARYMEKCL [Phage-616]" measured_number=0.06
